assay.summary: Cytotoxicity against human A549 cells assessed as cell viability at 100 uM by MTT assay relative to control
Type: cell-based
measurement.context: read-out: Activity
Answer each item with its documented viability at 100 µM.
Give bare numbers, in %.

query: Tell me viability at 100 µM reported for Nc1nc(NCCc2ccc(O)cc2)nc2nc(-c3ccco3)nn12
result: 32.6

query: Tell me viability at 100 µM reported for CN1CCCC1=O
result: 39.3

// switching to the query compound
query: Tell me viability at 100 µM reported for CCCn1c(=O)[nH]c2nc(-c3ccc(S(=O)(=O)N4CCN(c5ccc(Cl)cc5)CC4)cc3)[nH]c2c1=O
result: 35.8

// provenance: ChEMBL document CHEMBL4184095
